# assay.notes: HUVEC growth inhibition – cell-based, human, primary screen (AID 575);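 further: 100% = median of untreated cell wells with 0.1% DMSO on each plate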
# test.conditions: HUVEC proliferation, CellTiter-Glo luminescence, 72 h; at 10 µM; active compounds read low
Exercise: state measured viability for each of the molecules provided.
Answers are plain numbers, in %.

Below are worked cases with known answers.
CC1=C(C#N)C(c2ccoc2)C(C(=O)OCc2ccccc2)=C(N)S1 (stereo unspecified) ... 99.5
Cc1n[nH]c(C)c1S(=O)(=O)N1CCN(c2ccccn2)CC1 ... 111
Cc1cc(C)c2nc(N)sc2c1 ... 105
COc1ccc(-c2cc(C(F)(F)F)nc(SCCC(=O)N3CCOCC3)n2)cc1 ... 94.1
O=C(CCn1c(=S)[nH]c2cc3c(cc2c1=O)OCO3)N1CCN(C2CCCCC2)CC1 ... 93.8

For every record below, what is its viability?
1. COc1ccccc1C(=O)Nc1ccc(N2CCN(S(C)(=O)=O)CC2)cc1
2. CC1=C(C(N)=O)C(c2cccnc2)n2nc(SCc3ccccc3Cl)nc2N1 (stereo unspecified)
3. O=C(c1ccccc1)c1coc2ccc(O)c(CN3CCOCC3)c12
4. Cc1noc(C)c1CSc1nnc2n(-c3ccccc3)c(=O)c3ccccc3n12

Response:
1: 144; 2: 87.6; 3: 115; 4: 105

Batch lookup, viability per entry.
1. CCOC(=O)Nc1c(C(=O)OC)[nH]c2cccc(OC)c12
2. COc1ccc(N2CCN(c3ccc(N)cc3C#N)CC2)cc1

Response:
106
78.2

Values were extracted from PubChem BioAssay.
